biological target: Recombinant IDO1 (Homo sapiens); construct: His tag (N); made in house; host or cells: E. coli; assay: IDO1 enzymatic assay; format: biochemical; conditions: Table 1, 5-substituted imidazo[1,5-a]pyridines; 50 nM IDO1, 1.3 mM D-tryptophan; read-out: Enzyme IC50 (nM) IDO1
Sequence (P14902 whole entry): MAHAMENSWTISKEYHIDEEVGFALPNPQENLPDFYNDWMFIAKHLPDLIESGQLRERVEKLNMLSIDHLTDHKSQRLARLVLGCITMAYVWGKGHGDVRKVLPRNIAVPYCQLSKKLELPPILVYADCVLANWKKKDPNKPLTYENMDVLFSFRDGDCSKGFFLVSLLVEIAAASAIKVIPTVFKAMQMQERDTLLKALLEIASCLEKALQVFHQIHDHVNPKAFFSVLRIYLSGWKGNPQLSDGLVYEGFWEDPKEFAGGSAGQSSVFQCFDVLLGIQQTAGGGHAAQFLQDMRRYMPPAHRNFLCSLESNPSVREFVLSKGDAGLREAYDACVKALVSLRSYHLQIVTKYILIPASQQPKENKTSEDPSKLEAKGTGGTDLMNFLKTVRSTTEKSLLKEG
READOUT NAME: IC50 (nM)

Some solved cases for reference:
OC(c1cc(Br)cc2cncn12)C1CCCCC1 (stereo not shown); 25
OC(CC1CCCCC1)c1c(C(F)(F)F)ccc2cncn12 (single isomer, unassigned) [Example A127b]; 3200
O[C@@H](c1cc(Cl)cc2cncn12)C1CCCCC1 [Example A101b]; 890

[P] FC(c1cc(Cl)cc2cncn12)C1CCC(F)(F)CC1 (stereo not shown)
[Q] OC(CC1CCCCC1)c1c(I)ccc2cncn12 (single isomer, unassigned) [Example A124b]
[R] OC(c1cc(C(F)(F)F)cc2cncn12)C1CCCCCC1 (stereo not shown)
[S] OC(c1c(Cl)c(Br)cc2cncn12)C1CCCCC1 (stereo not shown)
Query :: Order field: IC50 | Direction: descending (largest first) Please express your ranking as an ordered list of the labels.
Result :: P, Q, R, S

[P] C=C(C)c1ccc2cncn2c1C(O)C1CCCCC1 (stereo not shown)
[Q] OC(c1cc(C(F)(F)F)cc2cncn12)C1CCCCC1 (stereo not shown) [Example A109]
[R] C#CC(O)c1cccc2cncn12 (stereo not shown)
Query :: Order field: IC50 | Direction: descending (largest first) Please express your ranking as an ordered list of the labels.
Result :: R, Q, P

[P] Cc1noc(C)c1-c1ccc2cncn2c1C(O)C1CCCCC1 (stereo not shown)
[Q] OC(CC1CCCCC1)c1cc(C(F)(F)F)cc2cncn12 (stereo not shown) [Example A114]
Query :: When their IC50 values are compared, which is larger, P or Q ? Record your answer as the label of the chosen record.
Result :: P
(P: 10000 nM, Q: 260 nM)

[A] OC(CC1CCCCC1)c1c(I)ccc2cncn12 (single isomer, unassigned) [Example A124a]
[B] O=C(O)c1cccc(C(O)c2c(C3CC3)ccc3cncn23)c1 (stereo not shown)
Query :: Returns: the label, A or B , whose recorded IC50 is the lower number. Record your answer as the label of the chosen record.
Result :: A

[A] OC1CCCCC1C(O)c1c(C2CC2)ccc2cncn12 (stereo not shown)
[B] OC1CCC([C@H](O)c2c(C3CC3)ccc3cncn23)CC1 (stereo partly shown) [Example A142a]
[C] OC1CCC([C@@H](O)c2c(C3CC3)ccc3cncn23)CC1 (single isomer, unassigned) [Example A142d]
[D] CC(O)c1cccc2cncn12 (stereo not shown) [Example A017, 1-(imidazo[1,5-a]pyridin-5-yl)ethan-1-ol]
Query :: Order field: IC50 | Direction: descending (largest first) Please express your ranking as an ordered list of the labels.
Result :: D, C, A, B
(D: 62000 nM, C: 9200 nM, A: 51 nM, B: 12 nM)
